# Test system: RKO
# assay name: cells
# study conditions: Homo sapiens
# Description: Cytotoxicity against human RKO cells expressing wild type p53 assessed as growth inhibition by MTT assay
assay readout: IC50 (nM)

Consider the worked cases shown below.
• CC(C)(C)C[C@@H]1N[C@@H](C(=O)NCC[C@H](O)CO)[C@H](c2cccc(Cl)c2)[C@@]1(C#N)c1ccc(Cl)cc1 = 3000
• CC(C)(C)C[C@@H]1N[C@@H](C(=O)Nc2ccc(C(=O)O)cc2F)[C@H](c2cccc(Cl)c2F)[C@@]1(C#N)c1ccc(Cl)cc1F = 500
• CC(C)(C)C[C@@H]1N[C@@H](C(=O)Nc2ccc3cc(C(=O)O)ccc3c2)[C@H](c2cccc(Cl)c2F)[C@@]1(C#N)c1ccc(Cl)cc1F = 280
• CC(C)(C)C[C@@H]1N[C@@H](C(=O)Nc2cccc(C(=O)O)c2)[C@H](c2cccc(Cl)c2F)[C@@]1(C#N)c1ccc(Cl)cc1F = 1540
• CC(C)(C)C[C@@H]1N[C@@H](C(=O)Nc2ccc(C(=O)O)cn2)[C@H](c2cccc(Cl)c2F)[C@@]1(C#N)c1ccc(Cl)cc1F = 400

[I] CC(C)(C)C[C@@H]1N[C@@H](C(=O)Nc2ccc(C(=O)O)cc2)[C@H](c2cccc(Cl)c2F)[C@@]1(C#N)c1ccc(Cl)cc1F
[II] CC(C)(C)C[C@@H]1N[C@@H](C(=O)Nc2ccc(C(=O)O)c(F)c2)[C@H](c2cccc(Cl)c2F)[C@@]1(C#N)c1ccc(Cl)cc1F
[ask] Of the pair I and II , name the member with the lesser recorded IC50. Your answer should be the label of the entry you select.
[reply] I

----------
# assay name: Clearance in human liver microsomes at […] by LC-MS/MS analysis
# Format: ADME, Microsome
assay readout: CLhep predicted (mL/min/kg)

• CC(C)(C)C[C@@H]1N[C@@H](C(=O)Nc2ccc(C(=O)O)cc2)[C@H](c2cccc(Cl)c2F)[C@@]1(C#N)c1ccc(Cl)cc1F = 4.9
• CC(C)(C)C[C@@H]1N[C@@H](C(=O)Nc2ccn(CC(C)(C)O)n2)[C@H](c2cccc(Cl)c2F)[C@@]1(C#N)c1ccc(Cl)cc1F = 4.2
• CC(C)(C)C[C@@H]1N[C@@H](C(=O)Nc2ccc3cc(C(=O)O)ccc3c2)[C@H](c2cccc(Cl)c2F)[C@@]1(C#N)c1ccc(Cl)cc1F = 9.4
• CCOc1cc(C(C)(C)C)ccc1C1=N[C@@](C)(c2ccc(Cl)cc2)[C@@](C)(c2ccc(Cl)cc2)N1C(=O)N1CCN(CCCS(C)(=O)=O)CC1 = 5.8

[A] CC(C)(C)C[C@@H]1N[C@@H](C(=O)Nc2ccc(C(=O)O)c(F)c2)[C@H](c2cccc(Cl)c2F)[C@@]1(C#N)c1ccc(Cl)cc1F
[B] COc1cc(NC(=O)[C@@H]2N[C@@H](CC(C)(C)C)[C@](C#N)(c3ccc(Cl)cc3F)[C@H]2c2cccc(Cl)c2F)ccc1C(=O)O
[ask] Hey, between A and B which has a smaller measured CLhep predicted? Kindly give the label for the entry you pick.
[reply] B

----------
# assay name: Total plasma clearance in C57 mouse at 3.6 mg/kg, iv
# Format: ADME, organism-based
# Set-up: dose 3.6 mg/kg, route intravenous
assay readout: clearance (mL/min/kg)
Give the quantity in mL/min/kg, number only.

[ask] For the molecule CC(C)(C)C[C@@H]1N[C@@H](C(=O)Nc2ccn(CC(C)(C)O)n2)[C@H](c2cccc(Cl)c2F)[C@@]1(C#N)c1ccc(Cl)cc1F , give its measured clearance value.
[reply] 19.8
